# molar enthalpy values compiled below
- TEST_PROTOCOL: molar enthalpy of vaporization or sublimation
- ASSAY_SETUP: 298.15 K; Liquid
Write down the numeric answer in kcal/mol and omit the unit.

Use the examples below as a reference point.
Ask | Return molar enthalpy (reported value) for this compound: CCCCCCCCCCCCCCCCCCCCCCCCCCCCCCC
Reply | 37.6

Ask | Return the recorded molar enthalpy value; entry: CCCCCCCCCCCCCCCCCCCCCCCCCCCCCCCCCCCCC
Reply | 44.8

Ask | State, in one line, measured molar enthalpy of CCCCCCCCCCCCCCCCCCCCCCCCCCCCCCCCCCC
Reply | 42.5

Ask | Look up and state reported molar enthalpy for CCCCCCCCCCCCCCCCCCCCCCCCCCCCCCCCCCCCCC
Reply | 46

More entries:
Ask | Indicate the recorded molar enthalpy value for this compound: CCCCCCCCCCCCCCCCCCCCCCCCCCCCCCCCCC
Reply | 41.3

Ask | Kindly indicate its recorded molar enthalpy. Item: CCCCCCCCCCCCCCCCCCCCCCCCCCCCCCCCCCCC
Reply | 43.7

Ask | Tell me its molar enthalpy given CCCCCCCCCCCCCCCCCCCCCCCCCCCCCCCCC as the entry.
Reply | 40.1

Ask | Give a short answer stating reported molar enthalpy for CCCCCCCCCCCCCCCCCCCCCCCCCCCCCCCC .
Reply | 38.8

Measured values drawn from the NIST ThermoML archive (doi:10.1021/je030236t) for this set.
